Molecular target: UniProt P04626
Assay: BaF3 cell proliferation assay, HER2 WT (Table B)
Format: cell-based
Settings: potency code, 3 days, CellTiterGlo, read-out: HER2 WT (Activity for Inhibiting HER2)
Readout name: IC50

input: Which IC50 reading was recorded for the compound C=CC(=O)Nc1cc2c(Nc3ccc(OCc4ccccn4)c(Cl)c3)ncnc2cc1OCCN1CCC1 ?
output: 5 to 10 nM

input: Which IC50 reading was recorded for the compound C=CC(=O)Nc1cc2c(Nc3ccc(OCc4ccccn4)c(Cl)c3)ncnc2cc1OCCn1ccnc1 ?
output: 10 to 20 nM

input: Which IC50 reading was recorded for the compound C=CC(=O)Nc1cc2c(Nc3ccc(OCc4ccccn4)cc3)ncnc2cc1OCCn1ccnc1 ?
output: 10 to 20 nM

input: Which IC50 reading was recorded for the compound CC#CC(=O)Nc1cc2c(Nc3ccc(OCc4ccccn4)c(Cl)c3)ncnc2cc1OC1CCN(C)C1 (stereo not shown) ?
output: 5 to 10 nM

###

Biological target: HER2 S310F (Homo sapiens, UniProt P04626, S310F)
Construct: expressed in transfected cells; host or cells: BaF3 (murine pro-B)
Sequence (P04626 23-1255 S310F): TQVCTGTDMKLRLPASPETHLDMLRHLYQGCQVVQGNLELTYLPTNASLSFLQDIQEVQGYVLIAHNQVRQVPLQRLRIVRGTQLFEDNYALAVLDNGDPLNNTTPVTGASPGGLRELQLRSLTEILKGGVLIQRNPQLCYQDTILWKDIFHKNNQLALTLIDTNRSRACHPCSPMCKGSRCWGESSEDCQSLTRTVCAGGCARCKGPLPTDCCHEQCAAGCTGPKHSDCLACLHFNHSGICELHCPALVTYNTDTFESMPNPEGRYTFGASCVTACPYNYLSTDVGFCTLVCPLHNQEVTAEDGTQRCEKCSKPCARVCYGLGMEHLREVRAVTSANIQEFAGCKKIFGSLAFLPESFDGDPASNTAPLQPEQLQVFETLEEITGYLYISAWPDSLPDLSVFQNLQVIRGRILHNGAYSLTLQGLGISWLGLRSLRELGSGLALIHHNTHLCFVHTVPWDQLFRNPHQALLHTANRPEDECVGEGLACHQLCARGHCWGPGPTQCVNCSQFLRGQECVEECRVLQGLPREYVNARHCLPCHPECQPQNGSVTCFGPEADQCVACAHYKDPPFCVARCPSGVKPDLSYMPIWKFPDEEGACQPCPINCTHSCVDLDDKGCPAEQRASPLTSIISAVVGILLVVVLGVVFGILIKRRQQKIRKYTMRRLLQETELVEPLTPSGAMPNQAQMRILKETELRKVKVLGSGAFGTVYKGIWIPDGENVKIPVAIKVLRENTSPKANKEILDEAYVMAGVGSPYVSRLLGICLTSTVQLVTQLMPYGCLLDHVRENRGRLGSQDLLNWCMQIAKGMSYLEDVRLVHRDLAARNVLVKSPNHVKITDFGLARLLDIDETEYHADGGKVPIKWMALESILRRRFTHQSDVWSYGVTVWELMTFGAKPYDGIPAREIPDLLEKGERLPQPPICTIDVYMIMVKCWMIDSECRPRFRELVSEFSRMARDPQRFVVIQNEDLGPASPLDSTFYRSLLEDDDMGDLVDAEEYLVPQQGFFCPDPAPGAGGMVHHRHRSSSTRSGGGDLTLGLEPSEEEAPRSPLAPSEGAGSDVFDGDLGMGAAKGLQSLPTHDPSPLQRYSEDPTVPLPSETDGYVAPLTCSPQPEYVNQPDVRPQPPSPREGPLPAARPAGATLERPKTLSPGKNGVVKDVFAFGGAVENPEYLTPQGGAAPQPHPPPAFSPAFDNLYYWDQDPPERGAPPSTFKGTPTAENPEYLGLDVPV
Assay: BaF3 cell proliferation assay, HER2 S310F (Table B)
Assay type: cell-based
Conditions: potency code, 3 days, CellTiterGlo, read-out: HER2 S310F (Activity for Inhibiting HER2)
pIC50: −log10 of the molar value.
Give measured pIC50 for each item. Keep answers brief.

input: Which pIC50 reading was recorded for the compound C=CC(=O)Nc1cc2c(Nc3ccc(OCc4cccc(C)n4)c(Cl)c3)ncnc2cc1OCCN1CC(OC)C1 [compound 135] ?
output: 6.70 to 7.00

input: Which pIC50 reading was recorded for the compound C=CC(=O)Nc1cc2c(Nc3ccc(OCc4ccccn4)c(Cl)c3)ncnc2cc1OC1CCN(C)C1 (centres unmarked) [compound 16] ?
output: 7.52 to 7.70

input: Which pIC50 reading was recorded for the compound C=CC(=O)Nc1cc2c(Nc3ccc(OCc4cccc(F)n4)c(Cl)c3)ncnc2cc1OCCCN1CCOCC1 [compound 153] ?
output: 7.70 to 8.00

input: Which pIC50 reading was recorded for the compound C=CC(=O)Nc1cc2c(Nc3ccc(Oc4cccc(Cl)c4)cc3)ncnc2cc1OCCN1CCOCC1 [compound 37] ?
output: 7.00 to 7.30

input: Which pIC50 reading was recorded for the compound C=CC(=O)Nc1cc2c(Nc3ccc(OCc4cccc(C)n4)c(Cl)c3)ncnc2cc1O[C@@H]1CCN(C)C1 [compound 140] ?
output: 6.70 to 7.00

input: Which pIC50 reading was recorded for the compound C=CC(=O)Nc1cc2c(Nc3ccc(OCc4cccc(F)c4)c(Cl)c3)ncnc2cc1N(C)CCN(C)C [compound 1] ?
output: 6.00 to 6.30

input: Which pIC50 reading was recorded for the compound C=CC(=O)Nc1cc2c(Nc3ccc(OCc4ccccn4)c(Cl)c3)ncnc2cc1OCCN(C)C1CC1 [compound 53] ?
output: 7.30 to 7.52

input: Which pIC50 reading was recorded for the compound C=CC(=O)Nc1cc2c(Nc3cc(Cl)c(OCc4cccc(F)c4)cc3F)ncnc2cc1OCCCN1CC(OC)C1 [compound 131] ?
output: 7.00 to 7.30

input: Which pIC50 reading was recorded for the compound C=CC(=O)Nc1cc2c(Nc3ccc(OCc4cccc(F)c4)c(Cl)c3)ncnc2cc1OCCN1CCN(C)CC1 [compound 130] ?
output: 7.30 to 7.52

input: Which pIC50 reading was recorded for the compound C=CC(=O)Nc1cc2c(Nc3ccc(OCc4ccccn4)cn3)ncnc2cc1OCCN1CCOCC1 [compound 58] ?
output: 6.30 to 6.52

input: Which pIC50 reading was recorded for the compound C=CC(=O)Nc1cc2c(Nc3ccc(OCc4ccccn4)c(Cl)c3)ncnc2cc1N1CC(N(C)C)C1 [compound 93] ?
output: 6.00 to 6.30

input: Which pIC50 reading was recorded for the compound C=CC(=O)Nc1cc2c(Nc3ccc(OCc4ccccn4)c(Cl)c3)ncnc2cc1C#CC1CCCN1 (centres unmarked) [compound 83] ?
output: 7.70 to 8.00

input: Which pIC50 reading was recorded for the compound C=CC(=O)Nc1cc2c(Nc3ccc(OCc4ccccn4)nc3)ncnc2cc1O[C@@H]1CCN(C)C1 [compound 72] ?
output: 6.30 to 6.52

input: Which pIC50 reading was recorded for the compound C=CC(=O)Nc1cc2c(Nc3ccc(OCc4ccccn4)c(Cl)c3)ncnc2cc1N1CC2(CCN2C)C1 [compound 50] ?
output: 6.52 to 6.70

input: Which pIC50 reading was recorded for the compound C=CC(=O)Nc1cc2c(Nc3ccc(OCc4ccccn4)c(Cl)c3)ncnc2cc1C#C[C@@H]1[C@H]2CN(C)C[C@@H]12 [compound 26] ?
output: 8.00 to 8.30

input: Which pIC50 reading was recorded for the compound C=CC(=O)Nc1cc2c(Nc3ccc(OCc4ccccn4)c(Cl)c3)ncnc2cc1N1CCN(C)CC1 [compound 42] ?
output: 7.00 to 7.30

input: Which pIC50 reading was recorded for the compound C=C(F)C(=O)Nc1cc2c(Nc3ccc(OCc4ccccn4)c(Cl)c3)ncnc2cc1OCCN1CCOCC1 [compound 109] ?
output: 7.70 to 8.00

input: Which pIC50 reading was recorded for the compound C=CC(=O)Nc1cc2c(Nc3ccc(Oc4ccccc4)c(Cl)c3)ncnc2cc1O[C@@H]1CCN(C)C1 [compound 91] ?
output: 7.30 to 7.52

input: Which pIC50 reading was recorded for the compound C=CC(=O)Nc1cc2c(Nc3ccc(OCc4ccccn4)c(Cl)c3)ncnc2cc1C#C[C@H]1CCNC1 [compound 86] ?
output: 7.52 to 7.70

input: Which pIC50 reading was recorded for the compound C=CC(=O)Nc1cc2c(Nc3ccc(OCc4ccccn4)c(Cl)c3)ncnc2cc1OCCN1CC(OC)C1 [compound 35] ?
output: 7.70 to 8.00

input: Which pIC50 reading was recorded for the compound C=CC(=O)Nc1cc2c(Nc3cc(Cl)c(OCc4cccc(F)c4)cc3F)ncnc2cc1OCCN1CCN(C)CC1 [compound 145] ?
output: 7.30 to 7.52

input: Which pIC50 reading was recorded for the compound C=CC(=O)Nc1cc2c(Nc3ccc(OCc4ccccn4)c(Cl)c3)ncnc2cc1OCCN1CCC(O)C1 (centres unmarked) [compound 30] ?
output: 7.70 to 8.00

input: Which pIC50 reading was recorded for the compound C=CC(=O)Nc1cc2c(Nc3ccc(OCc4ccccn4)cc3)ncnc2cc1OCCN1CCC(N(C)C)CC1 [compound 80] ?
output: 7.00 to 7.30

input: Which pIC50 reading was recorded for the compound C=CC(=O)Nc1cc2c(Nc3ccc(OCc4cccc(F)c4)c(Cl)c3)ncnc2cc1O[C@@H]1CCN(C)C1 [compound 141] ?
output: 7.30 to 7.52

input: Which pIC50 reading was recorded for the compound CC#CC(=O)Nc1cc2c(Nc3ccc(OCc4ncccn4)c(Cl)c3)ncnc2cc1OCCCN1CCOCC1 [compound 168] ?
output: 7.52 to 7.70

input: Which pIC50 reading was recorded for the compound CC#CC(=O)Nc1cc2c(Nc3cc(Cl)c(OCc4cccc(F)c4)cc3F)ncnc2cc1OCCN1CC(OC)C1 [compound 152] ?
output: 8.00 to 8.30

input: Which pIC50 reading was recorded for the compound C=CC(=O)Nc1cc2c(Nc3ccc(Oc4ccc(Cl)cc4)cc3)ncnc2cc1OCCN1CCOCC1 [compound 74] ?
output: 6.52 to 6.70

input: Which pIC50 reading was recorded for the compound C=CC(=O)Nc1cc2c(Nc3ccc(OCc4cccnn4)c(Cl)c3)ncnc2cc1OCCN1CC2CCC(C1)O2 [compound 173] ?
output: 7.30 to 7.52

input: Which pIC50 reading was recorded for the compound C=CC(=O)Nc1cc2c(Nc3ccc(OCc4ccccn4)c(Cl)c3)ncnc2cc1OCCN1CC2(COC2)C1 [compound 38] ?
output: 7.52 to 7.70

###

Molecular target: EGFR WT (Homo sapiens, UniProt P00533)
Sequence (P00533 25-1210 N540K): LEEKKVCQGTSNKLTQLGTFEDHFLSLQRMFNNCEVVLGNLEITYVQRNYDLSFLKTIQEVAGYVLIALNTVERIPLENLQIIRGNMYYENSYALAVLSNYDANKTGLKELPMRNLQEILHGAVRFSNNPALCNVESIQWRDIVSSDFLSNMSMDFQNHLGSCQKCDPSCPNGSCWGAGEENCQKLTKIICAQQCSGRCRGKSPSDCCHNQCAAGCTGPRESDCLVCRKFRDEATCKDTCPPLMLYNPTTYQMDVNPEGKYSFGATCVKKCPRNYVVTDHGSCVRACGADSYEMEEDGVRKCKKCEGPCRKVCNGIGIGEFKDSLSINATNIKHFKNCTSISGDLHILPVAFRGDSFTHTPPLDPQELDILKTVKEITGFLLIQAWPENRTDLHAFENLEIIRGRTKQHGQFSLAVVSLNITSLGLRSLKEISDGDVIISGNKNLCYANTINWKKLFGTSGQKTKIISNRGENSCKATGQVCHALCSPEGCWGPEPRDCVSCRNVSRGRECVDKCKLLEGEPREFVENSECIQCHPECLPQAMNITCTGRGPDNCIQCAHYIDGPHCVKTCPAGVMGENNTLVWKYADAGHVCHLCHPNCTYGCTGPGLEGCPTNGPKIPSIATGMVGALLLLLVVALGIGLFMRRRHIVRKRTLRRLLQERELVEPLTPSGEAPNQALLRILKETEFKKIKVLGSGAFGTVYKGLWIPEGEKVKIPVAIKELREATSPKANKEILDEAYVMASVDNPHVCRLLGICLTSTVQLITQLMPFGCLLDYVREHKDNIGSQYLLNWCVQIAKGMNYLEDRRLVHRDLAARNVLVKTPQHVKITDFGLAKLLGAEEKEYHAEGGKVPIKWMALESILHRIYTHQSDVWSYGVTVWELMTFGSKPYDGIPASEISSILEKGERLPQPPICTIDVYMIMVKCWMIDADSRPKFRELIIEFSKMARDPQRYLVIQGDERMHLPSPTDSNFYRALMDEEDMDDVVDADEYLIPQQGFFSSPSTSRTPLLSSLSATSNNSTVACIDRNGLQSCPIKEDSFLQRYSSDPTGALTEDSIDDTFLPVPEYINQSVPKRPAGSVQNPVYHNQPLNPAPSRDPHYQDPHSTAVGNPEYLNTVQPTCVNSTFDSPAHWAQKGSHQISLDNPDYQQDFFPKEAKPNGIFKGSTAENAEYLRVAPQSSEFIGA
Test: Activity for inhibiting EGFR (Table A), EGFR WT
Assay type: cell-based
Details: read-out: EGFR WT, potency code (IC50)
Give measured IC50 for each item. Keep answers brief.

input: Which IC50 reading was recorded for the molecule C=CC(=O)Nc1cc2c(Nc3ccc(OCc4ccccn4)c(Cl)c3)ncnc2cc1OCCN1CC2(COC2)C1 [compound 38] ?
output: 300 to 500 nM

input: Which IC50 reading was recorded for the molecule C=CC(=O)Nc1cc2c(Nc3ccc(OCc4ccccn4)c(Cl)c3)ncnc2cc1C#C[C@@H]1[C@H]2CN(C)C[C@@H]12 [compound 26] ?
output: 300 to 500 nM

input: Which IC50 reading was recorded for the molecule C=CC(=O)Nc1cc2c(Nc3ccc(Oc4ccc(Cl)c(F)c4)cc3)ncnc2cc1OCCN1CCOCC1 [compound 127] ?
output: 500 to 1000 nM

input: Which IC50 reading was recorded for the molecule C=CC(=O)Nc1cc2c(Nc3ccc(OCc4ccccn4)c(Cl)c3)ncnc2cc1OC1CCNC1 (centres unmarked) [compound 15] ?
output: 300 to 500 nM

input: Which IC50 reading was recorded for the molecule CC#CC(=O)Nc1cc2c(Nc3cc(Cl)c(OCc4cccc(F)c4)cc3F)ncnc2cc1OCCN1CCOCC1 [compound 149] ?
output: 100 to 200 nM

input: Which IC50 reading was recorded for the molecule C=CC(=O)Nc1cc2c(Nc3ccc(OCc4ccccn4)c(Cl)c3)ncnc2cc1OCC[C@H]1CCCN1C [compound 95] ?
output: 100 to 200 nM

input: Which IC50 reading was recorded for the molecule C=CC(=O)Nc1cc2c(Nc3ccc(OCc4ccccn4)c(Cl)c3)ncnc2cc1OC[C@H]1COCCN1 [compound 90] ?
output: 500 to 1000 nM

input: Which IC50 reading was recorded for the molecule C=CC(=O)Nc1cc2c(Nc3ccc(Oc4ccc(C)nc4)c(C)c3)ncnc2cc1C#CC(C)(C)N(C)C [compound 82] ?
output: 500 to 1000 nM

input: Which IC50 reading was recorded for the molecule C=CC(=O)Nc1cc2c(Nc3ccc(OCc4cccc(C)n4)c(Cl)c3)ncnc2cc1OCCN1CCOCC1 [compound 128] ?
output: 500 to 1000 nM

input: Which IC50 reading was recorded for the molecule C=CC(=O)Nc1cc2c(Nc3ccc(OCc4ccccn4)c(Cl)c3)ncnc2cc1OCC12CCC(CC1)N2C [compound 122] ?
output: 500 to 1000 nM

input: Which IC50 reading was recorded for the molecule C=CC(=O)Nc1cc2c(Nc3ccc(OCc4ccccn4)c(Cl)c3)ncnc2cc1C#C[C@@H]1[C@H]2CN(C3COC3)C[C@@H]12 [compound 113] ?
output: 500 to 1000 nM

input: Which IC50 reading was recorded for the molecule CC#CC(=O)Nc1cc2c(Nc3ccc(OCc4ncccn4)c(Cl)c3)ncnc2cc1OCCCN1CCOCC1 [compound 168] ?
output: 200 to 300 nM

input: Which IC50 reading was recorded for the molecule C=CC(=O)Nc1cc2c(Nc3ccc(OCc4ccccn4)nc3)ncnc2cc1O[C@@H]1CCN(C)C1 [compound 72] ?
output: > 1000 nM

input: Which IC50 reading was recorded for the molecule C=CC(=O)Nc1cc2c(Nc3ccc(OCc4ccccn4)c(Cl)c3)ncnc2cc1OCCN1CCC(N(C)C)CC1 [compound 76] ?
output: 200 to 300 nM

input: Which IC50 reading was recorded for the molecule C=CC(=O)Nc1cc2c(Nc3ccc(OCc4ccccn4)c(Cl)c3)ncnc2cc1N1CC2CCN(C)C2C1 (centres unmarked) [compound 49] ?
output: > 1000 nM

input: Which IC50 reading was recorded for the molecule C=CC(=O)Nc1cc2c(Nc3ccc(OCc4ccccn4)c(Cl)c3)ncnc2cc1OCC1(CN(C)C)CC1 [compound 98] ?
output: 200 to 300 nM

input: Which IC50 reading was recorded for the molecule CC#CC(=O)Nc1cc2c(Nc3cc(Cl)c(OCc4cccc(F)c4)cc3F)ncnc2cc1OCCN1CC(OC)C1 [compound 152] ?
output: 100 to 200 nM

input: Which IC50 reading was recorded for the molecule C=CC(=O)Nc1cc2c(Nc3ccc(OCc4ccccn4)c(Cl)c3)ncnc2cc1OCCN1CCOCC1 [compound 8] ?
output: 300 to 500 nM

input: Which IC50 reading was recorded for the molecule C=CC(=O)Nc1cc2c(Nc3ccc(OCc4ccccn4)cc3)ncnc2cc1OCCn1ccnc1 [compound 9] ?
output: 500 to 1000 nM

input: Which IC50 reading was recorded for the molecule C=CC(=O)Nc1cc2c(Nc3ccc(OCc4ccccn4)nc3)ncnc2cc1OCCN1CCOCC1 [compound 71] ?
output: 500 to 1000 nM

input: Which IC50 reading was recorded for the molecule C=CC(=O)Nc1cc2c(Nc3ccc(OCc4ccccn4)c(Cl)c3)ncnc2cc1OCCCN1CC(OC)C1 [compound 118] ?
output: 200 to 300 nM

input: Which IC50 reading was recorded for the molecule C=CC(=O)Nc1cc2c(Nc3ccc(OCc4cnccn4)c(Cl)c3)ncnc2cc1OCCCN1CCOCC1 [compound 169] ?
output: > 1000 nM

input: Which IC50 reading was recorded for the molecule C=CC(=O)Nc1cc2c(Nc3ccc(OCc4ccccn4)c(Cl)c3)ncnc2cc1OCC1(N(C)C)CC1 [compound 54] ?
output: > 1000 nM

input: Which IC50 reading was recorded for the molecule C=CC(=O)Nc1cc2c(Nc3ccc(OCc4cnccn4)c(Cl)c3)ncnc2cc1OCCCN1CC(OC)C1 [compound 179] ?
output: 500 to 1000 nM

input: Which IC50 reading was recorded for the molecule C=CC(=O)Nc1cc2c(Nc3ccc(OCc4cccc(F)n4)c(Cl)c3)ncnc2cc1OCCCN1C[C@H]2C[C@@H]1CO2 [compound 162] ?
output: 300 to 500 nM

input: Which IC50 reading was recorded for the molecule C=CC(=O)Nc1cc2c(Nc3ccc(OCc4cccc(C)n4)c(Cl)c3)ncnc2cc1OCCN1CC(OC)C1 [compound 135] ?
output: 300 to 500 nM

input: Which IC50 reading was recorded for the molecule C=CC(=O)Nc1cc2c(Nc3cc(Cl)c(OCc4cccc(F)c4)cc3F)ncnc2cc1OCCN1CC2CCC(C1)O2 [compound 147] ?
output: 500 to 1000 nM

input: Which IC50 reading was recorded for the molecule CC#CC(=O)Nc1cc2c(Nc3ccc(OCc4ccccn4)c(Cl)c3)ncnc2cc1OC1CCN(C)C1 (centres unmarked) [compound 67] ?
output: 100 to 200 nM

input: Which IC50 reading was recorded for the molecule CC#CC(=O)Nc1cc2c(Nc3cc(Cl)c(OCc4cccc(F)c4)cc3F)ncnc2cc1O[C@@H]1CCN(C)C1 [compound 151] ?
output: 100 to 200 nM
